# Tested on: A498
# ASSAY_SUMMARY: NCI tumour cell line growth inhibition, 48 h
The source made the active and inactive calls. No stated cut-off is given here; in the data, active = GI50 up to about 1.1 µM and inactive = higher.
Thanks in advance; please answer with one of these: active, inactive

Request: # outcome recorded in this test, key = CSc1nc(Cl)c2c(n1)Sc1nc3ccccc3n1N=C2
Response: inactive

Request: Hey, what did the test say about COc1cc2c(cc1OCCCCCN1C(=O)c3cccc4cccc(c34)C1=O)N=C[C@@H]1CCCN1C2=O ?
Response: active

Request: Give the logged outcome of this assay for the following compound: C=CC(C)C1(CCCOCc2ccccc2)C(=S)N2CCC3(CC24CCCC14)OCCO3 (stereo not drawn)
Response: inactive

Request: Call for entry O=C(CCN1CCN(c2ccccc2)CC1)N1CCc2c([nH]c3ccccc23)C1c1cccnc1 (stereo not drawn) :
Response: inactive

Request: Given CC(C)(C)Nc1noc(=O)n1C(C)(C)C , state the outcome it received in this test.
Response: inactive

Request: Record request — test call for CC(C)(CC(=O)Nc1ccccc1)C(=O)O
Response: inactive

Request: Just curious, what result did CSc1n[nH]c2[nH]nc(C)c12 get here?
Response: inactive

Request: # outcome recorded in this test, key = NC(=S)N1N=C2CCCCCC[C@@H]2[C@H]1c1ccccc1
Response: inactive

Request: Recorded test call requested for CCC(=O)CC(=O)CCC(=O)Nc1cc(C)ccc1C
Response: inactive

Request: Could you kindly confirm the outcome this assay logged for CCCCCCCCCCCCCCCCNc1nc(=O)n(C2OC(C)C(O)C2O)cc1F (stereo not drawn) ?
Response: inactive

Request: What did this assay record as the result for C/C(Nc1ccc(Cl)cc1Cl)=C1/CCOC1=O ?
Response: inactive

Request: Tell me the assay call for CCNC(=S)N/N=C(/C)c1cccc(/C(C)=N\NC(=S)NCC)n1 please.
Response: inactive

Request: Please indicate how the test categorized COc1ccc(/C=C2\CCCc3ccccc3C2=O)cc1 .
Response: active

Request: Outcome? CN(C)CCNC(=O)c1ccc(Cl)c2c(Nc3ccc(S(N)(=O)=O)cc3)c3ccccc3nc12
Response: inactive

Request: Per the assay record, what outcome was assigned to CN1CCN(Cn2nc(-c3ccccc3)n(/N=C/c3ccc(-c4ccc(Cl)cc4Cl)o3)c2=S)CC1 ?
Response: inactive

Request: Hi, do you know how O=C1NC(=S)NC(=O)C1=Cc1cccc2cc3ccccc3cc12 came out in this test?
Response: inactive

Request: What did the test return for N#CCc1c(F)c(F)c(F)c(F)c1F ?
Response: inactive

Request: Hi team, can someone confirm the assay call for Cc1cccc(C(C)C)c1NC(=O)/C(Cc1c([N+](=O)[O-])cccc1[N+](=O)[O-])=N/NC(=O)CC#N ?
Response: inactive

Request: For CC12CCC([C@H](N3CCOCC3)/C1=N\OCCN1CCCC1)C2(C)C (stereo partly drawn) , which call appears in the assay record?
Response: inactive

Request: Which result was noted for this compound in the test: Cc1ccc(NC(=O)C(Cc2c[nH]c3ccccc23)NC(=O)Oc2ccccc2)cc1C (stereo not drawn)
Response: inactive

Request: For this compound, state the assay outcome: CC(=O)CCN1CC2CN=NC2(C#N)C1 (stereo not drawn)
Response: inactive

Request: Test call for this compound, please: CCN(CC)c1ccc(C2NC(=O)c3ccccc3N2)cc1 (stereo not drawn)
Response: inactive

Request: Hi, sorry to bother you, what did the test record for Cc1c(C(=N)N)oc2ccccc12 ?
Response: inactive

* * *

# Test system: SK-MEL-28
# ASSAY_SUMMARY: NCI tumour cell line growth inhibition, 48 h
Activity calls are given as the source filed them. Cut-off read from the data, not from the text of the source: active = GI50 up to about 1.1 µM and inactive = higher.
TEST_READOUT: GI50

Request: Using the record for Cn1cc(NC(=O)[C@H]2CCC(N)=N2)cc1C(=O)NCCC(=N)N , report its GI50.
Response: > 100 µM (inactive)

Request: Would you mind telling me what GI50 value was observed for CCOC(=O)c1sc2c(c1OC(=O)c1ccccc1)c(=O)n(-c1ccccc1)c(=S)n2-c1ccccc1 ?
Response: 32.2 µM (inactive)

Request: Bench note: what GI50 did Nc1cc(CO)cc(Nc2c3ccccc3nc3occc23)c1 show?
Response: 36.4 µM (inactive)

Request: For CC1=N[C@](C)(C2CC3C=CC2C3=O)COC1=O (stereo not given in full) , what is its reported GI50?
Response: > 100 µM (inactive)

Request: # query: GI50 of entry Cc1ccc(-c2cc(=O)c3cc(C)c(C)c(C(=O)O)c3o2)cc1
Response: > 100 µM (inactive)

* * *

# System: U-251
# ASSAY_SUMMARY: NCI tumour cell line growth inhibition, 48 h
Activity calls are given as the source filed them. Rule as the data show it: active = GI50 up to about 1.1 µM and inactive = higher.
TEST_READOUT: GI50

Request: Recorded GI50 of NC(=S)N1N=C2CCCCCC[C@@H]2[C@H]1c1ccccc1 , please.
Response: 46 µM (inactive)

Request: Which measured GI50 value corresponds to C#CCOC(=O)C(N)CC(N)=O (stereo unspecified) ?
Response: > 100 µM (inactive)

Request: Report GI50 for COc1ccc(-c2c3c(nc4nc(SCCc5ccccc5)nc(N)c24)CCCC3)cc1OC please.
Response: > 100 µM (inactive)

Request: // GI50 lookup, key: O=C(N/N=C/c1ccccc1)c1c(F)c(F)c(F)c(F)c1F
Response: > 100 µM (inactive)

Request: Quick check: GI50 of Cc1cc(=O)n(-c2ccccc2C)c(C)n1 ?
Response: > 100 µM (inactive)

Request: GI50 for CC(=O)n1cc(C2CC23N=C(c2ccccc2)OC3=O)c2ccccc21 (stereo unspecified) ?
Response: 18.1 µM (inactive)

* * *

# System: U-251
# ASSAY_SUMMARY: NCI tumour cell line growth inhibition, 48 h
Activity calls are given as the source filed them. Rule as the data show it: active = GI50 up to about 1.1 µM and inactive = higher.
Please answer using one outcome listed in active, inactive

Request: Given C=C(C)[C@@H]1CC[C@]2(C)CC[C@]3(C)[C@H](CC[C@@H]4[C@@]5(C)CC[C@H](O)C(C)(C)[C@@H]5CC[C@]43C)[C@@H]12 , state the outcome it received in this test.
Response: inactive

Request: Lab log entry: COc1cc(/C=C2\C(=O)N(c3cccc(NC(C)=O)c3)C(c3ccccc3)S2(=O)=O)cc(OC)c1OC (centres undefined) — outcome as called in the assay?
Response: inactive

Request: Record lookup: outcome of this test for CCCCCCCSc1nc2c(C(=O)OCC)ncn2c2ccccc12 ?
Response: inactive

Request: Status in this test for COc1cc2c(cc1OCCCCCN1C(=O)c3cccc4cccc(c34)C1=O)N=C[C@@H]1CCCN1C2=O ?
Response: active

* * *

# Tested on: OVCAR-8
# ASSAY_SUMMARY: NCI tumour cell line growth inhibition, 48 h
Activity calls are given as the source filed them. Cut-off read from the data, not from the text of the source: active = GI50 up to about 1.1 µM and inactive = higher. Where a SMILES comes first, the peptide text is derived from it.
// allowed return values: active, inactive

Request: Kindly provide the recorded test outcome for the following molecule: CC1CCc2sc3nc(S)n(C)c(=O)c3c2C1 (stereo not given)
Response: inactive

Request: What call does the record list for CN(C)CCCNc1c(C#N)[n+]([O-])c2cc(Cl)ccc2[n+]1[O-] ?
Response: inactive

Request: Check the results log: what was the call for CCC(C)C1NC(=O)C2CCCN2C(=O)CNC(=O)C(C)NC(=O)C(Cc2ccccc2)NC(=O)C(C(C)C)NC1=O (stereo not given) (cyclo(GPIVFA); configuration not given here) ?
Response: inactive

Request: Test call, this molecule: O=C(CCN1CCN(c2ccccc2)CC1)N1CCc2c([nH]c3ccccc23)C1c1cccnc1 (stereo not given)
Response: inactive

Request: Could you please tell me the result logged for COCc1nc2c(OC)c(-c3nc4ccc(N5CCN(C)CC5)cc4[nH]3)cc(OC)c2[nH]1 in this assay?
Response: inactive

Request: What call does the record list for OCC(O)COCn1cc(Cn2ncc3c(NCc4ccccc4)ncnc32)nn1 (stereo not given) ?
Response: inactive

Request: So what was the verdict on CC1=C(C(=O)Nc2ccccc2C)C(c2ccco2)C(C(=O)Nc2ccccc2C)=C(C)N1C in this test?
Response: inactive

Request: Dear all, I need the recorded test outcome for O=C1c2cccc3cc4ccccc4c(c23)C(=O)N1CCCNCCNCCCN1C(=O)c2cccc3cc4ccccc4c(c23)C1=O , thank you.
Response: active

Request: What outcome does the record of this test show for C/C(=N\NS(=O)(=O)c1ccc(C)cc1)c1cc2ccccc2n1C ?
Response: inactive

Request: Would you mind telling me which call this test gave CCOC(=O)C(O)(C(=O)OCC)c1cc(C(C)(C)C)c(O)c(C(C)(C)C)c1 ?
Response: inactive

* * *

# System: RXF 631
# ASSAY_SUMMARY: NCI tumour cell line growth inhibition, 48 h
Active and inactive are the calls of the source. No stated cut-off is given here; in the data, active = GI50 up to about 1.1 µM and inactive = higher. Where a SMILES comes first, the peptide text is derived from it.
TEST_READOUT: GI50

Request: Given CSc1nnc(C(C#N)C#N)nn1 , state its recorded GI50.
Response: > 100 µM (inactive)

Request: # get_value(readout='GI50', item= COC(=O)C(=O)Cc1nc2ccccc2o1 )
Response: > 100 µM (inactive)

Request: Need GI50, item CCC(C)C1NC(=O)C2CCCN2C(=O)CNC(=O)C(C)NC(=O)C(Cc2ccccc2)NC(=O)C(C(C)C)NC1=O (stereo not given) (cyclo(GPIVFA); configuration not given here)
Response: > 100 µM (inactive)

Request: Sample COc1cc2c(cc1OCc1ccccc1)CNCC2 — what was its GI50?
Response: > 100 µM (inactive)

Request: Could you tell me which GI50 is on file for Cc1cc(=O)n(-c2ccccc2C)c(C)n1 ?
Response: > 100 µM (inactive)

Request: Please look up its GI50: CC1=C(C(=O)Nc2ccccc2C)C(c2ccco2)C(C(=O)Nc2ccccc2C)=C(C)N1C
Response: 81.5 µM (inactive)

Request: Would you mind telling me what GI50 value was observed for CCOC1=C2N=C(C(CC)c3ccccc3F)N=C2C(=O)c2ccccc21 (stereo not given) ?
Response: > 100 µM (inactive)

Request: Requested field: GI50. Item: CC12CCC([C@H](N3CCOCC3)/C1=N\OCCN1CCCC1)C2(C)C (stereo not given in full)
Response: > 100 µM (inactive)

Request: Quick one: GI50 for Cc1cccc(C(C)C)c1NC(=O)/C(Cc1c([N+](=O)[O-])cccc1[N+](=O)[O-])=N/NC(=O)CC#N ?
Response: > 100 µM (inactive)

Request: State the recorded GI50 for this entry: c1cncc(C2c3[nH]c4ccccc4c3CCN2CCN2CCCCC2)c1 (stereo not given)
Response: > 100 µM (inactive)
